Readings of phosphorylation enrichment for the listed sequences
Tested on: Fer (mouse)
Method summary: phosphorylation enrichment, bacterial display (enrichment ratio); higher = better substrate or ligand; peptides without Tyr show the background;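 note: 11-residue human phosphosite peptides and single-mutation variants displayed on the E. coli surface, counted by deep sequencing, each peptide's frequency after selection divided by its frequency in the unselected input library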;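 note: frequency after pTyr selection over input frequency; kinase dosed for 20-30% of maximal phosphorylation in three min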
Recorded endpoint: phosphorylation enrichment

DLFRLYVCVKE [ARID1B_Y1091] | 0.548
QWRTKYEMDAI [MYH7_Y1375_T1377M] | 0.365
GVVVPYEPPEV [TP53_Y220_S215G] | 0.563
QFRFIYMAVQH [PTPN11_Y515_YF] | 1.3
DGTIVCTGLET [USH2A_Y4487_Y4487C] | 0.582
FAFQLYDLDRD [CHP2_Y123_YF] | 0.631
GLCSFYETSKM [MAGED2_Y449_R446C_YF] | 1.95

---

Readings of phosphorylation enrichment for the listed sequences
Target of assay: Fyn (UniProt P06241)
Sequence (P06241 whole entry, looked up): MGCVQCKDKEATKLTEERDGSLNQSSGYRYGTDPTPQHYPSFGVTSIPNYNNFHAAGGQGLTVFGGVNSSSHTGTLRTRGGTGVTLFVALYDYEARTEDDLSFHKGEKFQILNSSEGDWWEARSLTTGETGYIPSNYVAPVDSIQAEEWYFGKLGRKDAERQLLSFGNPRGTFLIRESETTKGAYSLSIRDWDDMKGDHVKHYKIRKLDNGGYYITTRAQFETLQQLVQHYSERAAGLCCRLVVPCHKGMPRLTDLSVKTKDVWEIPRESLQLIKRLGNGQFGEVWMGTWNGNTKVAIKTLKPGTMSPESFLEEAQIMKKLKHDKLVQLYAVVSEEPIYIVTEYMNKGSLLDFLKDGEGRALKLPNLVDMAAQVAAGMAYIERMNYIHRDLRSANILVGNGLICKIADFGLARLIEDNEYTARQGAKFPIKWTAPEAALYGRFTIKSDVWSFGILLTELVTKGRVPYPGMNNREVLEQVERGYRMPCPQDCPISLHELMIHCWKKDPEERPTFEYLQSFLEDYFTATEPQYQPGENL
Method summary: phosphorylation enrichment, bacterial display (enrichment ratio); higher = better substrate or ligand; peptides without Tyr show the background
Recorded endpoint: phosphorylation enrichment

TNGFTYGSSHQ [MANEA_Y331] | 0.492
LGKGSYAKVKS [TSSK2_Y23] | 1.37
RRFSSYSQMEN [PKP1_Y120] | 1.48
FRDMDYRSFPR [RBM10_Y41_YF] | 0.424
LVKDGYQMAQP [CSF1R_Y873] | 0.357
QRKRAYVEIEY [MAK16_Y282] | 0.585
THEVRYVSAGQ [SLCO4A1_Y77] | 0.398
TRDVNYGWTIR [MT-CYB_Y75_I78T] | 0.441
RFLRGYQQDAF [HLA-A_Y137_R138Q_YF] | 0.685
MSDVPYVMNRG [ACAT1_Y161_N158D] | 0.316
VKKKLDEEIDQ [CYP17A1_Y329_Y329D] | 0.483
DLGIQYKVLKP [CTNNA1_Y177_A179V] | 0.46
GEHSIYSTVNN [CD55_Y266_C267S] | 10.3
FPDFVYKRIKA [DPYSL2_Y479] | 0.494
PCPANYFAFKI [FAM3D_Y65] | 1.14
PIQLFYTRRNT [GHR_Y86] | 0.938
NFHRGYHLQVL [CD200R1L_Y138] | 0.5
RLVTRYIYNRE [HLA-DQB1_Y62_Y58L] | 0.673
NTYEKYWPFYQ [GATM_Y103] | 5.72
DLRGIYQKLVI | 6.38
SVCPDYDLCSV [SQSTM1_Y148] | 0.689
HYPDVYAREQL [ALX3_Y181] | 0.906
SVTCTYSSALN [TP53_Y126_P128S] | 0.6
LHQSTYQCYDV [SLC7A14_Y693_R695C] | 3.95
IGVDSYSVCKR [RPS6KA3_Y433_G431D] | 0.347
VDYQPYRKHKY [TEX37_Y28] | 0.436
LGGSPYPGVPV [FGFR1_Y701] | 0.524
VDEVLYEDSST [MTHFS_Y197] | 0.571
GVASDYKCVDP [VPS13B_Y1991_I1994V] | 0.504
ARMTNCGLPRF [TSPAN12_Y138_Y138C_YF] | 0.322
SVVVPHEPPEV [TP53_Y220_Y220H] | 0.466
PEADKYCLTFA [FGG_Y300_R301C_YF] | 0.76
SSLMKYQQNVS [EGFEM1P_Y160_P157L] | 0.386
ILTLKYPIEHG [ACTA1_Y71] | 0.437
GVVVPYEPPEV [TP53_Y220_S215G] | 0.366
EKSREYDRLYE [PIK3R1_Y463] | 0.708
SYVVRYNQPRV [GRIN2D_Y736_M733V] | 0.433
CHKRTYKVTGL | 0.417
ETKKQYNSFTF [TMED3_Y85_D86N_YF] | 0.432
EICTQYEAMAS [GFAP_Y242_R239C] | 0.576
DGQSVYKLTDF [TBK1_Y153] | 2.52
ITVPAYFNDLQ [HSPA9_Y196_S200L] | 0.452
VGNPAYRSFSN [IL4R_Y497_A492V] | 0.441
KRLWDYGMSSS [F8_Y1728_E1723K] | 0.341
RRIHSYRGHLC [VHL_Y112_W117C] | 0.531
LLNPSYNLPLD [TOM1L1_Y109_R108S] | 0.979
YDEYRYRSFIK [CFTR_Y517_V520F] | 2.33
IFCIQYNIRAF [MYH4_Y820] | 0.445
FGSVMYEFVGK [SLC18A1_Y251] | 2.57
LMVFEYMRHGN [NTRK1_Y591_D596N] | 0.664
EVEPRYVVLYD [ERCC4_Y577] | 0.664
EYKDAYTFAAD [BRDT_Y335_K336T] | 0.833
AGQEDCDRLRP [CDC42_Y64_Y64C] | 0.436
ILDEAYVMAGA [ERBB2_Y772_V777A] | 0.596
NFRTTYVNANE [KCNH2_Y475] | 0.444
ASMAKYFASGI [ACADSB_Y372_E376G_YF] | 0.386
RLLVVYHWTQR [HBD_Y36_P37H] | 0.46
KFDLMYAKWAF [TUBA3E_Y399] | 1.43
